system: Vero E6 infected with SARS-CoV-2; assay: inhibition of SARS-CoV-2 cytopathic effect; higher = more antiviral protection, active = above 15; conditions: 1 nM; 48 h
Where a name gives a salt, the structure may show the parent alone.
RECORDED_METRIC: inhibition of SARS-CoV-2 cytopathic effect (%)
Dear colleague, please return just the value in %, with no unit written.

Give the measured inhibition of SARS-CoV-2 cytopathic effect of COc1cc2ncn(-c3cc(OCc4ccccc4C(F)(F)F)c(C(N)=O)s3)c2cc1OC . -9.5

Now give it for COc1nccc(-c2c(-c3ccc(F)cc3)ncn2[C@H]2CC[C@H](O)CC2)n1 too. 5.42

And then CN(C(=O)c1c(O)c2ccccc2n(C)c1=O)c1ccccc1 , what is it? -4.01

Again, but for COc1cccc(Nc2ncnn3ccc(CN4CC[C@@H](N)[C@H](O)C4)c23)c1 -0.26

Then what about the compound COCCOC(=O)C1=C(C)NC(C)=C(C(=O)OC(C)C)C1c1cccc([N+](=O)[O-])c1 (stereo not drawn) ? -2.49

Here is the next compound: O=C(O)[C@H]1CN(C/C=C/P(=O)(O)O)CCN1 -2.43

Entry to check: Cn1nnnc1SCC1=C(C(=O)O)N2C(=O)[C@@H](NC(=O)[C@H](OC=O)c3ccccc3)[C@H]2SC1 [cefamandole-nafate] -1.93

Field entry: N=C(Nc1ccccc1)Nc1ccccc1 -3.55

Then CCC[C@@]1(CCc2ccccc2)CC(O)=C([C@H](CC)c2cccc(NS(=O)(=O)c3ccc(C(F)(F)F)cn3)c2)C(=O)O1 ? -0.16

Next: CNCCC(Oc1ccc(C(F)(F)F)cc1)c1ccccc1 (stereo not drawn) -10.3

Query CCCS(=O)(=O)Nc1ccc(F)c(C(=O)c2c[nH]c3ncc(-c4ccc(Cl)cc4)cc23)c1F next 3.98

Now give it for Nc1n[nH]c2nc3ccccc3nc12 too. 0.56

Same for COc1ccccc1N1CCN(CCCNc2cc(=O)n(C)c(=O)n2C)CC1 0.14

What about this compound? CC(C)NCC(O)c1ccccc1Cl (stereo not drawn) 2.05

Follow-up item: Brc1ccc(NC2C3CC4CC(C3)CC2C4)cc1 (stereo not drawn) -1.24

What do you have for Cc1cccc(NC(=O)N[C@@H]2N=C(c3ccccc3)c3ccccc3N(C)C2=O)c1 ? -0.47

Lookup C=C[C@@]1(C)CC(=O)[C@]2(O)[C@@]3(C)[C@@H](O)CCC(C)(C)[C@@H]3[C@H](O)[C@H](OC(C)=O)[C@@]2(C)O1 2

Proceed to CO/N=C(\C(=O)N[C@@H]1C(=O)N2C(C(=O)O)=C(Cn3ccc(=N)n3CCO)CS[C@H]12)c1csc(N)n1 [Cefoselis sulfate] 0.33

* * *

Could you please report measured inhibition of SARS-CoV-2 cytopathic effect for the items listed next?
tested on: Vero E6 infected with SARS-CoV-2; experiment: inhibition of SARS-CoV-2 cytopathic effect; higher = more antiviral protection, active = above 15; details: 10000 nM; 48 h
Structures can show the parent of a compound that is named as a salt.
# number only, unit % dropped from output

Find the measured inhibition of SARS-CoV-2 cytopathic effect: item COc1ccc(OC)c([C@@H](O)CNC(=O)CN)c1 , target or system Vero E6 infected with SARS-CoV-2. -0.39

Then this compound: CN1CCN(CCCN2c3ccccc3Sc3ccc(C(F)(F)F)cc32)CC1 14.5

Record: O=C(c1ccc(Cl)cc1)N(Cc1ccccc1)C1CCCCC1 -2.35

Okay, and CN1C2CCCC1CC(NC(=O)c1nn(C)c3ccccc13)C2 (configuration not stated) ? -4.21

And the next one, Cc1c(C(N)=O)cc([N+](=O)[O-])cc1[N+](=O)[O-] [dinitolmide] ? -3.59

Now consider NC(=O)CN1CC(c2ccccc2)CC1=O (configuration not stated) and answer again. -0.44

Another compound to check: CC[C@@H](c1cccc(O)c1)[C@@H](C)CN(C)C [Tapentadol (hydrochloride)] -0.29

Similarly, CCCOc1ccc2[nH]c(NC(=O)OC)nc2c1 ? -0.04

Check C[C@H]1CN(C[C@H](Cc2ccccc2)C(=O)NCC(=O)O)CC[C@@]1(C)c1cccc(O)c1 too. 2.12

What do you get for O=C(NCCCN1CCOCC1)c1ccc(Cl)cc1 [eprobemide] ? 0.69

Then N[C@@H](Cc1cc(CP(=O)(O)O)cc(-c2ccccc2Cl)c1)C(=O)O ? 1.74

Now the same for CSCC[C@H](NC(=O)[C@H](CC(C)C)NC(=O)CNC(=O)[C@H](Cc1ccccc1)NC(=O)[C@H](Cc1ccccc1)NC(=O)[C@H](CCC(N)=O)NC(=O)[C@H](CCC(N)=O)NC(=O)[C@@H]1CCCN1C(=O)[C@H](CCCCN)NC(=O)[C@@H]1CCCN1C(=O)[C@@H](N)CCCN=C(N)N)C(N)=O -5.64

Another compound: COc1cc(N2CCOCC2)ccc1Nc1ncc(Cl)c(Nc2ccccc2NS(C)(=O)=O)n1 -13.2

Also CCOc1ccn(-c2ccc(F)cc2)c(=O)c1C(=O)Nc1ccc(Oc2ccnc(N)c2Cl)c(F)c1 , if possible. -3.09

Next compound: CNCCC=C1c2ccccc2C=Cc2ccccc21 -7.92

What do we get for CN(C)[C@@H]1C(O)=C(C(N)=O)C(=O)[C@@]2(O)C(O)=C3C(=O)c4c(O)ccc(Cl)c4[C@@H](O)[C@H]3C[C@@H]12 ? 2.34

Another compound to check: CC1CCN(CCCC(=O)c2ccc(F)cc2)CC1 2.13
